Data origin, for the record: patent US20210230570

Entries and their K0.5-mut/K0.5-wt values follow.
Target: antithrombin III (plasma purified human AT-III), in complex with unfractionated heparin
Give the value as a plain number.

Below are worked cases with known answers.
FIXa-D203N/F205T/R338A (protein) chain 1: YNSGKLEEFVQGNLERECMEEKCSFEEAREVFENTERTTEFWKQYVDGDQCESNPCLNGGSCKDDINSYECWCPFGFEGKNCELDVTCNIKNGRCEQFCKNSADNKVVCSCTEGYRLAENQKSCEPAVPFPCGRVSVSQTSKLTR chain 2: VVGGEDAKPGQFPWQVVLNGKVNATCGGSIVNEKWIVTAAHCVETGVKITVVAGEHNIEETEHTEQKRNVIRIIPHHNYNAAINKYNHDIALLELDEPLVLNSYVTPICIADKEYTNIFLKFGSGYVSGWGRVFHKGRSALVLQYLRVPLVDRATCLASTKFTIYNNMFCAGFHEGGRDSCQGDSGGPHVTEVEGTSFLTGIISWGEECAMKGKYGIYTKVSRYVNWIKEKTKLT; 21.9
FIXa-D203N/F205T/R338E (protein) chain 1: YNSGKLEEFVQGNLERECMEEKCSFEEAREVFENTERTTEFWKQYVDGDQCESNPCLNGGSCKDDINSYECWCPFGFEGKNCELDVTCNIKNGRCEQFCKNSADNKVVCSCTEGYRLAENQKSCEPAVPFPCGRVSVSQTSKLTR chain 2: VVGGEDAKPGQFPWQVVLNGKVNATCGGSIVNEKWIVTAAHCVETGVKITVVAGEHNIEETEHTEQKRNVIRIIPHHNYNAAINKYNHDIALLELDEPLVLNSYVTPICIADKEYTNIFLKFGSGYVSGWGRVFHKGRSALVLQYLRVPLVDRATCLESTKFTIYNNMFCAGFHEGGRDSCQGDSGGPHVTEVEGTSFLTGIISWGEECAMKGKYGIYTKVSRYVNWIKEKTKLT; 60.5
FIXa-R318Y/R338E/E410N (protein) chain 1: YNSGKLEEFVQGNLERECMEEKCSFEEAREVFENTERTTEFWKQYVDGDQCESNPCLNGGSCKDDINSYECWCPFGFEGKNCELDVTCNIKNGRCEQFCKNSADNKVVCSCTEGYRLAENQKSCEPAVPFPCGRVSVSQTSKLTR chain 2: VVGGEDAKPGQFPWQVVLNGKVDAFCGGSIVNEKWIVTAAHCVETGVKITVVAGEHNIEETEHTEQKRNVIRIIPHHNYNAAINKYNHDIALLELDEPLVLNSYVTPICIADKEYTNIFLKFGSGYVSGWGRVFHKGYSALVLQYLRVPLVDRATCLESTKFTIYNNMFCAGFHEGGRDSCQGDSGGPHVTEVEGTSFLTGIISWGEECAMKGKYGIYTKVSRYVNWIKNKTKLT; 179

Consider now this further protein.
Exercise: Can you share its K0.5-mut/K0.5-wt? I mean this protein: FIXa-D203N/F205T/R338E/R403E (protein) chain 1: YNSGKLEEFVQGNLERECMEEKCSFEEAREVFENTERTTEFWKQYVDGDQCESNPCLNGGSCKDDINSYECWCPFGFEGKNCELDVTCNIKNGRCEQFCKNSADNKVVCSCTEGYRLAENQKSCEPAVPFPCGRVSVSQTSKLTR chain 2: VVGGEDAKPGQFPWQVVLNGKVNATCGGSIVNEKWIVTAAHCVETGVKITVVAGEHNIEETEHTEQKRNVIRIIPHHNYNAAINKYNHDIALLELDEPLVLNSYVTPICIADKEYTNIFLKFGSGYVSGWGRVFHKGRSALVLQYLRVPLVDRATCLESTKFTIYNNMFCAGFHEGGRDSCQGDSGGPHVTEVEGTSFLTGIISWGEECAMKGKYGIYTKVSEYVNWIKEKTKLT
Key: 78.6
